- System: PPARg DBDmut:RXRa IVT, anti-PPARg (DBD mutation: PPARg1 K132A/R137A, NR concentration 270 nM, RXRa partner concentration 90 nM)
- protocol_description: PBM binding z-score (relative to random genomic background probes); higher = stronger binding; sequences stand for … in GC…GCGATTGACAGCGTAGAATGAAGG
So basically: PBM binding z-score at 0.4 or higher? That is t. Lower than 0.4? That is f.

Look over these answered cases.
> print(dat)
                     monomer.sequence  assigned.class
1  ATCTCTAGGTAAGACTCAATTCAGTGAAGAACGC               f
2  AGTCAAAGTTGACTAGGTAACGTAAGATTCAGCT               t
3  GATACAGGGTCAAGGCAAGAGTACGCGTATTGAT               t
4  CCTACTGGGCCACGAAAGGTCATTGCTTCAGTGA               t
5  TCTAGTTGGTCAAAGGTCACACGCTCGAAATGCG               t
6  ATCTCTAGGCAAAAGTTCAGTGAATCCCGAGGAT               t
7  ACAGACAGGTGAGTGAACGTAACTCAGCTGGACG               f
8  CCGCGGAGGACAGAAGGTCAGAGCTGTCCGCTTT               f

Please check the record TAGCCTAGGTCATGGGCCAGTACACCACGCGAAC and state if its PBM binding z-score is at or above 0.4.
t

Please check the record ACAGACAGGTGAGTGAAGTTAACTCAGCTGGACG and state if its PBM binding z-score is at or above 0.4.
f

Please check the record TCTTGTAGATCAATAGAGGGTAAGAAAGTGCGCT and state if its PBM binding z-score is at or above 0.4.
f

---

Documented PBM binding z-score across a set of sequences
- Tested on: THRa homodimer (NR concentration 90 nM)
- protocol_description: PBM binding z-score (relative to random genomic background probes); higher = stronger binding; sequences stand for … in GC…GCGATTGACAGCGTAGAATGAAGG
# respond with the number and nothing more

Please review the following examples before continuing.
> print(dat)
                     monomer.sequence  measured.number
1  TCTTGTAGATCAAATGTTAAGAAAGCCGAAGCCT            -0.39
2  CAAACTAGGTCACGAATGGTCAAAGTCGAATGAC             1.51
3  AGAATGAGTTTATTAAGATCAGGGAATTGCGGTC            0.231
4  TTACCAAGGTGAGCTGAGTTCGTTGATCCAACTC            0.173
5  TCTAGTAGTTGAAGGGCAACCGACGAGTCCGTTT            -0.38
6  CTACCAAGGTGAACAAGGTCCTTGATTACTATTC             1.03

Fill in: PBM binding z-score of CCCACTGGGGCATAAGGTTACCATAAGCCAGCCC is ___
1.01

Fill in: PBM binding z-score of GCTATTACTTGAAAGGGCAACCGAATGATTCTCG is ___
-0.383

Fill in: PBM binding z-score of CCAGACAGGTGAAAGGTAAATCAGTCTGGTACGC is ___
-0.308

Fill in: PBM binding z-score of AACTCTAGGTAAAAGTTCAGTGAATCCCGAGGAT is ___
0.014

Fill in: PBM binding z-score of TCTTGTCGATCAATAGAGGTTAAGAAAGTGCGCT is ___
-0.159

Fill in: PBM binding z-score of CCTACTGGGCCATTCAGAGGTCTTTGATCATATG is ___
-0.237

Fill in: PBM binding z-score of CCTACTGGGCCACGCAAGGTCATTGATTCAGTGA is ___
2.64

Fill in: PBM binding z-score of TCGAGTAGGTTACCAATGGGGCATTCACCTTTCT is ___
-0.317

Fill in: PBM binding z-score of CCTAGTTGGTCAGAAGGTCACACACCGGATATGA is ___
1.59

Fill in: PBM binding z-score of TGTCAAAGTTCAAAGGTAGCGTAAGTATCCACAC is ___
-0.0719

Fill in: PBM binding z-score of TCTTTTAGATCAAAGGTTAAGAAAGCCGAAGCCT is ___
-0.158

Fill in: PBM binding z-score of ACAGACAGGTGATGTAGGTAACTCAGGCTATCAT is ___
-0.00745

---

- Test system: PPARg:RXRa (NR concentration 180 nM, RXRa partner concentration 90 nM)
- protocol_description: PBM binding z-score (relative to random genomic background probes); higher = stronger binding; sequences stand for … in GC…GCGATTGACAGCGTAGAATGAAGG
So basically: PBM binding z-score at 2 or higher? That is true. Lower than 2? That is false.

Look over these answered cases.
> print(dat)
                      monomer.sequence  assigned.class
 1  CCGACTGGGGCTAAGGTTACCATACTCAGTACGA            true
 2  TGAATGGGGTTAAAGATCAGGGAACGTGGCGTCG            true
 3  CCTATTAGTTGACCATCAGGGCAACCGAAGCTCG           false
 4  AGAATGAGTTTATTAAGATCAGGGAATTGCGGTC           false
 5  ATATGTAGGTTAGCTGGGGTCATTCAGACTAGGC            true
 6  CGTCCAAGATCATAGGAGGTCAGTGAAGACAGAT           false
 7  ACTCGGAGGACAAGGGTCAGAGCTACGCCAGTGA            true
 8  TGAATGAGGTTAAAGTTCAGGGAACGTGGCGTCG            true
 9  CAAACTAGGTCACAGAGGTCAATGTCCGTGCGTA            true
10  CCAGACAGGAGAGAAGGTAACTCAGCCTCGATTA           false

Please check the record CCTACTGGGCCCAAAAGGTCATTGATGCCGATAA and state if its PBM binding z-score is at or above 2.
false

Please check the record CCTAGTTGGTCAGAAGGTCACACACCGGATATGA and state if its PBM binding z-score is at or above 2.
true

Please check the record ACAGACAGGTGATGAAGTTAACTCAGGCTATCAT and state if its PBM binding z-score is at or above 2.
false

Please check the record CGAACTAGGGCATTGACAGGACAGTGAATAGTAA and state if its PBM binding z-score is at or above 2.
true

---

- Test system: PPARg:RXRa (NR concentration 180 nM, RXRa partner concentration 90 nM)
- protocol_description: PBM binding z-score (relative to random genomic background probes); higher = stronger binding; sequences stand for … in GC…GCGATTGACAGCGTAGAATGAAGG
measurement_kind: PBM binding z-score
# respond with the number and nothing more

Give PPARg:RXRa (NR concentration 180 nM, RXRa partner concentration 90 nM) PBM binding z-score for TAGCCTAGGTCATGCGGGCAAGTATAGTGTCGGC
2.32

---

Documented PBM binding z-score across a set of sequences
- Tested on: RARa homodimer (NR concentration 270 nM)
- protocol_description: PBM binding z-score (relative to random genomic background probes); higher = stronger binding; sequences stand for … in GC…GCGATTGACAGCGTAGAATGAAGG
# respond with the number and nothing more

Please review the following examples before continuing.
> print(dat)
                     monomer.sequence                             target.entity     measurement.kind  measured.number
1  CAAACTAGGTCAAGGTCAAAGACGGTTTGTGCCA  RARa homodimer (NR concentration 270 nM)  PBM binding z-score             2.69
2  AGAAAGAGGGCAATGAGTTGATAGCACGGGTGGC  RARa homodimer (NR concentration 270 nM)  PBM binding z-score           0.0375
3  AATACAGGGTCATCGTAGGCCAGGGTACGCACAG  RARa homodimer (NR concentration 270 nM)  PBM binding z-score             1.22

Fill in: PBM binding z-score of CCGAGTAGGTTATGGGGCATTCGGGCAACGGTGA is ___
-0.149

Fill in: PBM binding z-score of CCTGCTAGGTCATGATCAGCTAATCTACAGTATG is ___
0.216

Fill in: PBM binding z-score of ATCTCTAGGTAAGACCCAGTTCAGTGAAGAACGC is ___
0.821

Fill in: PBM binding z-score of AAAACAGGGTCACTAGGCCAGAGTAGGTACGAAT is ___
1.21

Fill in: PBM binding z-score of CAAACTAGGTGAAGAGGTCAAAGTCCGCTTCCCG is ___
0.811
